Listed binders paired with reported IC50
# ASSAY TARGET: T1, human CD40-Fc protein (amino acid residue 21-193 of SEQ ID NO: 67 linked to N-terminus of amino acid residue … (human, biotin-labeled in the capture ELISA and in the benchmark blocking ELISA; unlabeled when coated in the ligand blocking ELISA)
# T1 construct: also called biotin-labeled human CD40-Fc; human CD40-Fc-biotin
# ASSAY PROCEDURE: competitive ELISA; biotin human CD40-Fc in solution, competitor coated BM2
MEASURED ATTRIBUTE: IC50 (nM)

[[record]]
binder = "chimeric antibody C1C1 (antibody, human IgG1, kappa, V domains shown, also called chC1C1; chimeric C1C1) VH: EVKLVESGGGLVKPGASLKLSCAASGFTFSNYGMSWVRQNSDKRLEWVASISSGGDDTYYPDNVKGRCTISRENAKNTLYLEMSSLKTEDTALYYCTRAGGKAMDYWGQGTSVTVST VL: DIVLTQSPATLSVIPGNSVSLSCRASQSIRDNLHWYQQKSHESPRLLINYASQSISGIPSRFSGSGSGTDFTLTINSVETEDFGIYFCQQFNSWPLTFGGGTKLELKR"
measured = 0.126

[[record]]
binder = "mouse anti-CD40 monoclonal antibody 1B2 (antibody, V domains shown, Purified from hybridoma supernatant; also called Mouse 1B2) VH: EVQLQQSGPELVKPGASVKMSCKASGYTFTDYVMHWVKQKPGQGLECIGYINPYNDGTKYNEKFKGKATLTSDKSSSAAYLELSSLTSEDSAVYYCARGFLRESWFGYWGQGTLVTVSA VL: DVLMTQTPLSLPVSLGDQASISCRSSQNIVHSNGNTYLDWYLQKPGQSPKLLIYKVSNRFSGVPDRFSGSGSGTDFTLKINRVEAEDLGVYYCFQGSHVPPTFGAGTKLELK"
measured = 4.76

[[record]]
binder = "mouse anti-CD40 monoclonal antibody C1C1 (antibody, V domains shown, those are used here for the chimeric antibody only; also called Mouse C1C1; mouse C1C1) VH: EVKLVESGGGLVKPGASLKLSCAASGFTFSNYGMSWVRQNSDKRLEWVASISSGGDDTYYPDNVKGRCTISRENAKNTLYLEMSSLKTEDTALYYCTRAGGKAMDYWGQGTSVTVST VL: DIVLTQSPATLSVIPGNSVSLSCRASQSIRDNLHWYQQKSHESPRLLINYASQSISGIPSRFSGSGSGTDFTLTINSVETEDFGIYFCQQFNSWPLTFGGGTKLELK"
measured = 0.461

[[record]]
binder = "humanized antibody huC1C1-V7 (antibody, human IgG1, kappa, V domains shown, Human IgG1/kappa; also called humanized C1C1-V7) VH: EVQLVESGGGVVQPGRSLRLSCAASGFTFSNYGMSWVRQAPGKGLEWVASISSGGDDTYYPDNVKGRFTISRDNSKNTLYLQMNSLRAEDTAVYYCTRAGGKAMDYWGQGTLVTVSS VL: EIVLTQSPATLSLSPGERATLSCRASQSIRDNLHWYQQKPGQAPRLLIYYASQSISGIPARFSGSGSGTDFTLTISSLEPEDFAVYYCQQFNSWPLTFGQGTKVEIKR"
measured = 0.111

